Test system: OVCAR-4 ovarian
Experiment: NCI-60 one-dose screen, 48 h (100 = growth as untreated, 0 = no growth, -100 = all killed)
Settings: 10 µM unless noted
Procedure: Growth inhibition of the OVCAR-4 human tumor cell line is measured as a screen for anti-cancer activity. Cells are grown in 96 well plates and exposed to the test compound for 48 hours. Compounds are tested at a single concentration, which is 10^-5 M for most compounds. The reported endpoint is percent growth (GI% or GIPRCNT), where numbers from 0 - 100% represent growth inhibition, and numbers from -100% - 0 represent cell death. For example, a value of 40 represents 60% growth inhibition. […]
About 83,000 compounds went through this panel and 20% of them were active in at least one assay; those are over-represented in the sample as a whole.
quantity measured: growth (%)
Only the number, expressed in %, is required.

1. COc1ccc2[nH]cc(-c3nc(-c4c[nH]c5c(Cl)nccc45)cs3)c2c1; 68.6
2. O=C1Nc2ccccc2/C1=C\c1c[nH]c2ccc(Br)cc12; 54.7

Find growth (OVCAR-4 ovarian) for the entry CCOC(=O)c1c(C)nc2ccccc2c1/C=C/c1cccs1 40.4

Now give it for CC(=O)O[C@H]1C[C@@H]2C(C)(C)C(=O)CC[C@@]2(C)c2ccc(C(C)C)cc21 too. 104

Next record, please: N#Cc1c(Nc2ccc(N3CCOCC3)cc2)nc(SCC(=O)c2ccc(Br)cc2)nc1-c1ccccc1 105

====

Tested on: MALME-3M melanoma
Test: NCI-60 one-dose screen, 48 h (100 = growth as untreated, 0 = no growth, -100 = all killed)
Settings: 10 µM unless noted
Experimental: Cells are grown in 96 well plates and exposed to the test compound for 48 hours. Compounds are tested at a single concentration, which is 10^-5 M for most compounds. The reported endpoint is percent growth (GI% or GIPRCNT), where numbers from 0 - 100% represent growth inhibition, and numbers from -100% - 0 represent cell death. For example, a value of 40 represents 60% growth inhibition. A value of 0 means no net growth occurred over the course of the experiment. […]
This is part of a sample that, as a whole, favours compounds with a hit. Of some 83,000 tested, about 20% had one in any assay.
Examples of molecules with documented growth follow.
Field: numeric (%). Do not append units.

Take a look at these entries with their results.
1) N#C/C(=C\c1ccc(-c2cccc(C(F)(F)F)c2)o1)c1ccccc1; 96.4
2) CCN1C(=O)N(CC)C2C1N=C(SCc1ccc(Cl)cc1)N2/N=C/C=C/c1ccccc1OC (stereo not drawn); 60.9
3) Cc1ccc(S(=O)(=O)OCCCOS(=O)(=O)c2ccc(C)cc2)cc1; 100
4) CCCn1cnc2c(c1=N)C(c1ccc(F)cc1)c1sc3c(F)cccc3c1O2 (stereo not drawn); 54.1
5) O=C(Cc1ccccc1)Nc1cccc(N=Cc2ccccc2O)c1; 106

Recorded growth of CNC(=O)c1cc(Oc2ccc3c(c2)sc2nc(-c4ccc(OC)cc4)cn23)ccn1 , please. 68.3

What do you get for COc1ccc(/C=C/c2c(C(=O)/C=C/c3ccccc3)c(C)nc3ccccc23)cc1 ? 17.8

And what about the molecule CCN1CCN(CC(=O)Nc2nc3ccc(NCc4ccc(F)cc4)cc3s2)CC1 ? 90.7

====

test system: SW-620 colon; test: NCI-60 one-dose screen, 48 h (100 = growth as untreated, 0 = no growth, -100 = all killed); conditions: 10 µM unless noted
Compounds without any hit were thinned out: in the full panel of roughly 83,000, 20% have a hit.
Classify: satisfied when growth is strictly less than 30%; not satisfied when growth is not.

1. N#Cc1ccc(O)c(C2=NCC(Cc3ccccc3)O2)c1 (stereo not given); not satisfied
2. Cc1[nH]c(C2CC(c3ccc(C(F)(F)F)c(F)c3)=NN2c2ccccc2)c(C)c1C(=O)NCC(F)(F)F (stereo not given); not satisfied
3. N=c1c(S(=O)(=O)c2ccccc2)cc2c(=O)n3ccccc3nc2n1CC1CCCO1 (stereo not given); not satisfied
4. Nc1[nH]c(=S)nc2oc(-c3ccccc3)c(-c3ccccc3)c12; not satisfied
5. N=C(N)c1ccc(-c2ccc(-c3cc(Cl)cc(Cl)c3)s2)nc1; satisfied

Take the compound Cc1ccc2nc(NC(=O)CSc3nc(-c4ccccc4)c(C#N)c4nnnn34)sc2c1 and say whether its growth is less than 30%. not satisfied

And for C[C@]1(O)CC(=O)[C@]2(O)C3=C(C=C[C@]2(O)C1)C(=O)c1c(O)cccc1C3=O ? satisfied

Same for CCCCCCCCCCCCCOC(=O)c1c(C)[nH]c(/C=C2\N=C(c3ccc[nH]3)C=C2OC)c1C satisfied

Also C=C1C(=O)O[C@H]2[C@H]1CC/C(COC(=O)/C=C\C(=O)NCc1ccc(Cn3c(=O)sn(CCCl)c3=O)cc1)=C\CC[C@@]1(C)O[C@@H]21 , if possible. not satisfied

Query CCOC(=O)C#Cc1c(C(=O)OCC)nnn1Cc1ccc(C(F)(F)F)cc1 next satisfied

====

tested on: UACC-257 melanoma; assay: NCI-60 one-dose screen, 48 h (100 = growth as untreated, 0 = no growth, -100 = all killed); details: 10 µM unless noted
About 83,000 compounds went through this panel and 20% of them were active in at least one assay; those are over-represented in the sample as a whole.
quantity measured: growth (%)
The figure you give is taken to be in %; do not add the unit.

Given Cc1ccc(C2CC(c3nc(-c4ccc(Cl)cc4)oc3C)=NN2C(=O)c2ccncc2)cc1 (stereo not given) , state its recorded growth. 97.1

Again, but for COC1=C(C)C(=O)N2[C@@H]1[C@H](c1ccccc1)OC21C=CC(=O)C=C1 -12.8

Cool, now CC(C)(C)n1cc(-c2ccnc(NCCNS(=O)(=O)c3ccc(O)cc3)c2)c(-c2cccc(O)c2)n1 99.1

Continue with CCOc1cccc(/C=N/NC(=O)c2cccc(Nc3ccnc(C(F)(F)F)c3)c2)c1O 37.3

Same question, Cc1ccc2nc(-c3ccc(C(=O)NNC(=S)Nc4ccccc4)cc3)[nH]c2c1 this time 102

====

test system: HS 578T breast; experiment: NCI-60 one-dose screen, 48 h; conditions: 10 µM unless noted
About 83,000 compounds went through this panel and 20% of them were active in at least one assay; those are over-represented in the sample as a whole. Activity calls are given as the source filed them. The calls were made as follows: active = growth percent below 10; inactive = the rest.
Thanks in advance; please answer with one of these: active, inactive

Observe how each entry below is paired with its result.
1. COc1ccc(/C=C2\CN(C(=O)C(Cl)Cl)C/C(=C\c3ccc(OC)cc3)C2=O)cc1; inactive
2. S=c1[nH]c(=S)c2c(-c3ccccc3)c(-c3ccccc3)oc2[nH]1; inactive
3. CSC(SC)=C(C#N)c1nc2ccccc2s1; inactive
4. O=c1c2c3c(sc2n2c(-c4cc(-c5ccccc5)no4)nnc2n1Cc1ccccc1)CCCC3; inactive
5. CCOC(=O)c1c(C)nc2c(c1N)CC(=O)N2Cc1ccc(OC)cc1; inactive

For this compound, state the assay outcome: CC1=C2[C@@H](CC1)[C@]1(C)O[C@@](C3CCCCC3)(C[C@H]1OC(=O)CO)[C@H]2OC(=O)/C=C/c1ccccc1 active

====

test system: MOLT-4 leukemia; assay: NCI-60 one-dose screen, 48 h (100 = growth as untreated, 0 = no growth, -100 = all killed); details: 10 µM unless noted
This is part of a sample that, as a whole, favours compounds with a hit. Of some 83,000 tested, about 20% had one in any assay.
quantity measured: growth (%)
Please reply with the bare figure in % and do not write the unit itself.

The following compounds have reported results that may help.
1. CCN1C(=O)N(CC)C2C1NC(=S)N2/N=C/c1ccc(OC)cc1 (stereo not drawn); 47.7
2. O=C1c2cccc3cccc(c23)C(=O)N1C/C=C/c1ccc2c3c(cccc13)C(=O)N(CCO)C2=O; 80
3. CCCCNc1cc(-c2cn[nH]c2-c2cc(C)cc(OC)c2)nc(-c2cccnc2)n1; 82.6
4. COC(=O)CCC/C=C\C[C@H]1C=CC(=O)/C1=C/C[C@@H](O)C/C=C\CC(F)(F)F; 2.73
5. Cn1ccc(=O)nc1; 74.6

What growth value was documented for this compound, Nc1nc(N)c2c(n1)NC(c1cccc(Nc3ccnc4cc(C(F)(F)F)ccc34)c1)CC(c1ccc(Br)cc1)=N2 (stereo not drawn) ? 9.24

For Nc1nc(NC(=O)Nc2ccc(C(=O)O)cc2)nn1-c1ccc(S(N)(=O)=O)cc1 then? 93.1

Please do the same for Cc1nnc(-c2ccc3c(c2)nc(/C=C/c2ccccc2)n3C2CCCCC2)o1 as well. 43.4

====

test system: HCC-2998 colon; assay: NCI-60 one-dose screen, 48 h; conditions: 10 µM unless noted
The panel holds about 83,000 compounds, 20% with a hit somewhere; the sample as a whole holds those more often. Calls of active or inactive are those of the source. How the source made its calls: active means growth percent below 10; inactive means the rest.
Returns: one label drawn from Y = active, N = inactive

1. COc1ccc(C2=CC(c3cc(OC)c(OC)c(OC)c3)n3ncnc3N2)cc1 (stereo not given); N
2. COc1cccc(Nc2ncnc3cc(NC(=O)CCl)ccc23)c1; N
3. COc1ccc(C2=CN3CC=CC3CC2=O)cc1 (stereo not given); N
4. O=C1/C=C/[C@@H](O)[C@@H]2C[C@@H](O)C[C@H]2/C=C/CCC[C@H](CCO)O1; Y
5. N=C(N)c1ccc(-c2ccc(-c3ccccc3)s2)cc1; Y
6. COc1cc(-c2nc3c(ncc4ccc(=O)n(-c5ccccc5)c43)s2)cc(OC)c1OC; N
7. C=CC(=O)Nc1ccc(Oc2nccc(Nc3nnc(-c4ccc(C)cc4)s3)n2)cc1; N
8. COC(=O)N1CC(Oc2ccccn2)C2CC1c1ccccc1O2 (stereo not given); N

Assay result, entry COC(=O)/C=C1/SC(=Nc2ccc([N+](=O)[O-])cc2)N(CCc2c[nH]c3ccc(O)cc23)C1=O — outcome? N

Next up: C[C@H](CCCC(=O)NCC#CCN1CCN(C)CC1)[C@H]1CC[C@H]2[C@@H]3CC[C@@H]4CC(=O)CC[C@]4(C)[C@H]3CC[C@]12C N

Repeat for the following compound: NC1(CO)COC(c2ccccc2)OC1 (stereo not given) N

Next: CCOC(=O)c1c(C)c2c(n1Cc1ccccc1)CSCC2=O N

Again, but for CCN(CC)CCN1C(=O)c2c(c(C)c3c(oc4ccc(OC)cc43)c2C)C1=O N

One more compound: COc1cc2c(c(OC)c1OC)C(=O)CC(c1cccc(NC(=O)c3ccc(C#N)cc3)c1)O2 (stereo not given) N

Here is the next compound: CC1CCN(C(=O)CCCl)c2ccccc21 (stereo not given) N

Same question, CCN(CC)CCCN1C(=O)c2c(c(C)c3c(oc4ccc(OC)cc43)c2C)C1=O this time N

Try this compound too: CCSc1oc(C)nc1[P+](c1ccccc1)(c1ccccc1)c1ccccc1 N

Quick one: CC1CCN(C(=S)SCC(=O)NC(=O)c2ccccc2)CC1 N

What do you get for CNC1=C([N+](=O)[O-])C(c2ccc(OC)cc2)C(C#N)=C(c2cccs2)O1 (stereo not given) ? N

Next record, please: O=C(CCCCCCN1CC(=O)N2[C@H](c3ccc(Cl)cc3)c3[nH]c4ccccc4c3C[C@@H]2C1=O)NO N
